- Test system: PC-3 prostate
- protocol details: NCI tumour cell line growth inhibition, 48 h
reported endpoint: TGI

Reference set, count: 8
>>> measured_value("COC(=O)Cc1c(C2=Nc3ccccc3C2(O)CC(=O)OC)[nH]c2ccccc12 (centres undefined)")
"> 100 µM"
>>> measured_value("Cc1nnc([S-])s1.[Au+].c1ccc([PH+](c2ccccc2)c2ccccc2)cc1")
"2.92 µM"
>>> measured_value("NC(Cc1nn[nH]n1)C(=O)O (centres undefined)")
"> 100 µM"
>>> measured_value("Cc1cccc(NC(=O)CC(=O)N2N=C(N3c4ccccc4Sc4ccccc43)CC2c2ccccc2)c1 (centres undefined)")
"> 100 µM"
>>> measured_value("O=c1oc(-c2ccc(O)c(O)c2)cc2cc(O)cc(O)c12")
"> 100 µM"
>>> measured_value("COc1ccc2nc3ccc(OC)cc3c(SCCCN)c2c1")
"4.68 µM"
>>> measured_value("CN(C)c1ccc(C(=NNC(=O)c2cc3ccccc3[nH]2)c2ccc(N(C)C)cc2)cc1")
"> 66.8 µM"
>>> measured_value("C[C@@H](NC(=O)Cc1cc(F)cc(F)c1)C(=O)N[C@@]1(C)N=C(c2ccccc2)c2ccccc2N(C)C1=O")
"> 100 µM"

Q. TGI lookup needed for O=C(Cc1nc2ccc(C(=O)c3ccccc3)cc2[nH]c1=O)C(=O)Nc1ccccc1[N+](=O)[O-] , thanks.
A. > 100 µM

Q. Could you tell me which TGI is on file for COc1c(O)c(OC)c(C(=O)/C=C/c2ccccc2)c(O)c1OC ?
A. > 100 µM

Q. # lookup: TGI of Nc1ncnc2occ(-c3ccc(NC(=O)Nc4cc(C(F)(F)F)cc(C(F)(F)F)c4)cc3)c12
A. 8.33 µM

Q. Find the recorded TGI belonging to CC(CS(=O)(=O)Cc1ccccc1)C(N)=O (centres undefined) and report it.
A. > 100 µM

Q. Quick one: TGI of CC1(C)N=C(N)N=C(N)N1c1ccc(OCC(=O)Nc2cccc(S(=O)(=O)F)c2)c(Cl)c1 ?
A. > 76.6 µM

----------
- Test system: ACHN renal
- protocol details: NCI tumour cell line growth inhibition, 48 h
reported endpoint: GI50

In the examples that follow, each entry is paired with its recorded GI50.
>>> measured_value("CCOC(=O)c1[nH]c2c(c1C)-c1[nH]c(=O)c(S(=O)(=O)c3ccccc3)cc1SC2")
"47.3 µM"
>>> measured_value("COc1ccccc1C(=O)c1cnc(NC2CCN(S(C)(=O)=O)CC2)nc1N")
"4.68 µM"
>>> measured_value("Cc1ccc(C2=Nc3c(N)ncnc3NC(c3cccc(Nc4ccnc5cc(C(F)(F)F)ccc45)c3)C2)cc1 (stereo not given)")
"4.69 µM"
>>> measured_value("Cc1nn(-c2ccccc2)c2c1C1C(=C(c3ccc(Cl)cc3)N2)C(=O)Nc2ccccc21 (stereo not given)")
"3.51 µM"
>>> measured_value("COc1cccc(-c2nn(-c3ccccc3)cc2-c2ccnc(NCCNC(=O)Nc3ccc(Cl)c(Cl)c3)c2)c1")
"2.79 µM"
>>> measured_value("COC(=O)c1cc(Nc2ccc(O)c3c2C(=O)c2c([N+](=O)[O-])ccc(O)c2C3=O)cc(C(=O)OC)c1")
"21.3 µM"

Q. Any idea what GI50 was measured for O=C1C=C(Nc2cccc(Br)c2)c2ccccc2C1=O ?
A. 0.957 µM

Q. # input compound: c1ccc2c(c1)nc(NCCN1CCNCC1)c1c3ccccc3[nH]c21 ; wanted: its GI50
A. 0.369 µM

Q. # query: GI50 of entry CC1Cc2c(N(C)C)ncnc2N(C)c2ccc(Cl)cc21 (stereo not given)
A. 7.59 µM

Q. What does the data say about its GI50? Entry: CN1C(=O)c2cc(Cl)nc3c(NC(=O)c4cccc(Cl)c4)c(Cl)c(NC(=O)c4cccc(Cl)c4)c1c23
A. 1.72 µM

Q. May I ask what GI50 has been recorded for O=C(/C=C/N1CCN(c2cccc(C(F)(F)F)c2)CC1)c1ccc(Cl)cc1Cl ?
A. 23.4 µM

Q. Would you kindly share the measured GI50 for CC(C)(C)n1cc(-c2ccnc(NCCNS(=O)(=O)c3ccc(Br)cc3)c2)c(-c2cccc(O)c2)n1 ?
A. 2.1 µM

Q. Quick one: GI50 for CCN(CC)CCOc1ccc(/C=C2\C[C@H]3[C@@H]4CC=C5C[C@@H](OC(C)=O)CC[C@]5(C)[C@H]4CC[C@]3(C)[C@H]2OC(C)=O)cc1OC ?
A. 9.19 µM

Q. Item COc1ccccc1C1C(C#N)=C(N)OC2=C1C(=O)CCC2 (stereo not given) has what recorded GI50?
A. > 100 µM

Q. Using the record for COc1ccc2nc3ccc(OC)cc3c(SCCCN)c2c1 , report its GI50.
A. 4.72 µM

----------
- System: COLO 205 colon
- protocol details: NCI tumour cell line growth inhibition, 48 h
Each record here notes measured TGI.

>>> measured_value("O=C1/C(=C/c2cccc(Oc3ccccc3)c2)N=C(c2ccccc2)N1c1nc2ccc(Sc3ccccc3)cc2[nH]1")
"31.5 µM"

Q. Return reported TGI; argument: CNc1ccc2nc(-c3ccc(OC(=O)N(C)C)cc3)cn2c1
A. 32.2 µM

Q. Entry under review: CCN(CC)CCOc1ccc(/C=C2\C[C@H]3[C@@H]4CC=C5C[C@@H](OC(C)=O)CC[C@]5(C)[C@H]4CC[C@]3(C)[C@H]2OC(C)=O)cc1OC . Reported TGI?
A. > 50 µM

Q. Look up TGI for this compound: C/C(=N\N(C)C)C(CN(C)C)C(c1ccccc1)c1c(O)c2ccccc2oc1=O (stereo unspecified)
A. > 100 µM

----------
- System: SW-620 colon
- protocol details: NCI tumour cell line growth inhibition, 48 h
reported endpoint: TGI

>>> measured_value("COc1ccc2cccc(C(=N)c3ccc(C)c4c3CCC4)c2c1")
"18.7 µM"
>>> measured_value("Cc1cc(CS(=O)(=O)/C=C/c2ccccc2[N+](=O)[O-])c(CS(=O)(=O)/C=C/c2ccccc2[N+](=O)[O-])cc1C")
"> 100 µM"
>>> measured_value("C#CC(C)(C)Oc1cc(OC)c2c(=O)c3ccccc3n(C)c2c1")
"> 100 µM"
>>> measured_value("COc1cc(C2C3=C(COC3=O)N(CCO)c3cc4c(cc32)CCC4)cc(OC)c1O (centres undefined)")
"> 32.5 µM"
>>> measured_value("CN(C)CCCn1c2ccccc2c2cnccc21")
"> 100 µM"

Q. What value of TGI on SW-620 colon does Oc1c2cccc1Cc1cccc3c1OCCOCCOCCOCCOc1c(cccc1Cc1cccc(c1O)C3)C2 have?
A. > 100 µM

Q. I'm curious: which TGI was measured for Cc1ccc([P+](Cc2ccc([N+](=O)[O-])cc2)(c2ccc(C)cc2)c2ccc(C)cc2)cc1 tested on SW-620 colon?
A. 15.4 µM

Q. Which TGI is reported with SW-620 colon for this entry: CCN(CC)CCC(=O)Nc1ccc(Cn2nnc3c2C(=O)c2nnn(Cc4ccc(NC(=O)CCN(CC)CC)cc4)c2C3=O)cc1 ?
A. 1.75 µM

Q. Notebook entry, SW-620 colon assay: TGI of C[C@@H](NC(=O)Cc1cc(F)cc(F)c1)C(=O)N[C@@]1(C)N=C(c2ccccc2)c2ccccc2N(C)C1=O = ?
A. > 100 µM

----------
- Test system: HS 578T breast
- protocol details: NCI tumour cell line growth inhibition, 48 h
Each item that follows carries a reported TGI.
Field format: number, assumed µM, no unit text.

Some entries whose results are on file:
>>> measured_value("CCN(CC)CCC(=O)Nc1ccc(Cn2nnc3c2C(=O)c2nnn(Cc4ccc(NC(=O)CCN(CC)CC)cc4)c2C3=O)cc1")
8.84
>>> measured_value("CC[C@]12C=CCN3CC[C@]4(C(=C(C(=O)OC)C1)Nc1cc(O)ccc14)[C@@H]32")
58.1
>>> measured_value("O=C1c2cc([N+](=O)[O-])ccc2NC2C(O)c3ccccc3N12 (stereo not given)")
74.3

Continue with the compound presented below.
Q. // fetch HS 578T breast TGI for N#CC1c2ccccc2-c2ccccc2N1C(=O)c1ccccc1 (stereo not given)
A. 6.72

----------
- Test system: NCI-H226 lung
- protocol details: NCI tumour cell line growth inhibition, 48 h; in the data active = GI50 below about 0.43 µM; inactive = the rest
Result category, one only: active, inactive

Previously resolved entries follow.
>>> discrete_label("COc1cccc(-c2nn(-c3ccccc3)cc2-c2ccnc(NCCNC(=O)Nc3ccc(Cl)c(Cl)c3)c2)c1")
"inactive"
>>> discrete_label("CCN(CC)CCOc1ccc(/C=C2\\C[C@H]3[C@@H]4CC=C5C[C@@H](OC(C)=O)CC[C@]5(C)[C@H]4CC[C@]3(C)[C@H]2OC(C)=O)cc1OC")
"inactive"
>>> discrete_label("CC(C)OP(=O)(OC(C)C)C(N(C)C)P(=O)(OC(C)C)OC(C)C.[Cl][Sn]([Cl])([Cl])[c]1ccccc1")
"inactive"

Q. Answer briefly: the call reported for Cc1ccc(NCSc2ccc(Cl)cc2)cc1 in this assay.
A. inactive

Q. Test call for this compound, please: COc1cc(C2C3=C(COC3=O)N(CCO)c3cc4c(cc32)CCC4)cc(OC)c1O (configuration not stated)
A. inactive

Q. Please share the test call associated with CC(C)(C)n1cc(-c2ccnc(NCCNS(=O)(=O)c3ccc(Br)cc3)c2)c(-c2cccc(O)c2)n1 .
A. inactive
